assay: Agonist activity at PPARgamma in human MKN45 cells assessed as induction of cell aggregation incubated for 5 days by Hoechst 33342 staining based IN cell analyzer method
pEC50: −log10 of the molar value.
result type: pEC50

• C/C(=C1/c2ccc(Cn3c(C4CC4)nc4c(Cl)ccnc43)cc2COc2cc(F)ccc21)c1noc(=O)[nH]1 = 7.49
• C/C(=C1/c2ccc(Cn3c(C4CC4)nc4cscc43)cc2COc2cc(F)ccc21)c1noc(=O)[nH]1 = 8.52
• C/C(=C1/c2ccc(Cc3c(C4CC4)nc4c5c(ccn34)OCC5)cc2COc2cc(F)ccc21)c1noc(=O)[nH]1 = 7.72
• C/C(=C1/c2ccc(Cn3c(C4CC4)nc4c(Cl)nccc43)cc2COc2cc(F)ccc21)c1noc(=O)[nH]1 = 7.66
• CCCc1nc2ccccc2n1Cc1ccc2c(c1)COc1cc(F)ccc1/C2=C(\C)c1noc(=O)[nH]1 = 9.00
• CCCc1nc2ccccc2n1Cc1ccc2c(c1)COc1ccc(F)cc1/C2=C(\C)c1noc(=O)[nH]1 = 8.15
• C/C(=C1/c2ccc(Cc3c(C4CC4)nc4cc(Cl)ccn34)cc2COc2cc(F)ccc21)c1noc(=O)[nH]1 = 8.85
• C/C(=C1/c2ccc(Cc3c(C4CC4)nc4ccc(Cl)cn34)cc2COc2cc(F)ccc21)c1noc(=O)[nH]1 = 8.70
